# Tested on: EL4
# METHOD SUMMARY: In vitro cytotoxicity of compound against EL4, mouse thymoma was defined by microculture tetrazolium assay
# Assay type: functional, cell-based
ENDPOINT NAME: IC50 (µg/mL)
Expressed in µg/mL, but write only the number.

Give recorded IC50 with EL4 for the following molecule: CO[C@@]12[C@H](COC(N)=O)C3=C(C(=O)C(C)=C(N)C3=O)N1C[C@@H]1N[C@@H]12 3.94

Reported IC50 for EL4, given C[C@H]1[C@@H](CCCCN=[N+]=[N-])O[C@@H]2O[C@]3(C)CC[C@H]4[C@H](C)CC[C@@H]1[C@]24OO3 ? 1.61

Request - read-out IC50 | tested on EL4 | molecule C[C@H]1[C@@H](CCSCC[C@H]2O[C@@H]3O[C@]4(C)CC[C@H]5[C@H](C)CC[C@@H]([C@H]2C)[C@]35OO4)O[C@@H]2O[C@]3(C)CC[C@H]4[C@H](C)CC[C@@H]1[C@]24OO3 0.23

Look up IC50 with EL4 for this molecule: C[C@H]1[C@@H](CCNC(=O)CC[C@H](N)C(=O)NCC[C@H]2O[C@@H]3O[C@]4(C)CC[C@H]5[C@H](C)CC[C@@H]([C@H]2C)[C@]35OO4)O[C@@H]2O[C@]3(C)CC[C@H]4[C@H](C)CC[C@@H]1[C@]24OO3 16.5

Please state recorded IC50 (tested on EL4) of C[C@H]1[C@@H](CCCCN)O[C@@H]2O[C@]3(C)CC[C@H]4[C@H](C)CC[C@@H]1[C@]24OO3 5.63

// map C[C@H]1[C@@H](CCNC(=O)CC[C@H]2O[C@@H]3O[C@]4(C)CC[C@H]5[C@H](C)CC[C@@H]([C@H]2C)[C@]35OO4)O[C@@H]2O[C@]3(C)CC[C@H]4[C@H](C)CC[C@@H]1[C@]24OO3 to recorded IC50 (system: EL4) 6.29

What is its IC50 for EL4? Entry: COc1cccc2c1C(=O)c1c(O)c3c(c(O)c1C2=O)C[C@@](O)(C(=O)CO)C[C@@H]3O[C@H]1C[C@H](N)[C@H](O)[C@H](C)O1 0.67

What reported IC50 corresponds to C[C@H]1[C@@H](CCS(=O)(=O)CCCS(=O)(=O)CC[C@H]2O[C@@H]3O[C@]4(C)CC[C@H]5[C@H](C)CC[C@@H]([C@H]2C)[C@]35OO4)O[C@@H]2O[C@]3(C)CC[C@H]4[C@H](C)CC[C@@H]1[C@]24OO3 on EL4? 10

Record CC(=O)O[C@H]1C(=O)[C@@]2(C)[C@H]([C@H](OC(=O)c3ccccc3)[C@]3(O)C[C@H](OC(=O)[C@H](O)[C@@H](NC(=O)c4ccccc4)c4ccccc4)C(C)=C1C3(C)C)[C@]1(OC(C)=O)CO[C@@H]1C[C@@H]2O : what is its IC50 with EL4? 1.34

Item C[C@H]1[C@@H](CCS(=O)(=O)CC[C@H]2O[C@@H]3O[C@]4(C)CC[C@H]5[C@H](C)CC[C@@H]([C@H]2C)[C@]35OO4)O[C@@H]2O[C@]3(C)CC[C@H]4[C@H](C)CC[C@@H]1[C@]24OO3 with EL4 - IC50? 0.54
